Test system: isolated rat brain synaptosomes
Assay: 6-OHDA-induced neurotoxicity in isolated rat brain synaptosomes
Type: cell-based
Conditions: Rattus norvegicus; 100 µM compound + 150 µM 6-OHDA, compared to 6-OHDA alone; read-out: preserved synaptosomal viability
Method: Synaptosomes and mitochondria were isolated by subcellular fractionation using a Percoll gradient, following the method described by Tauplin et al. and Sims et al.. Brain homogenate was prepared and centrifuged at 1000× g for 5 min at 4 °C. […] After a 1-h incubation with the substances and toxic agent, synaptosomes were centrifuged in a microcentrifuge at 15,000× g for 1 min. […] The amount of formazan was then measured spectrophotometrically at λ = 580 nm. […]
Entries and their measured viability at 100 µM follow.
Entry rule: numbers only, all in %.

Solved entries (count: 5):
CCOC(=O)c1cc(-c2ccc(Br)cc2)n(C(Cc2c[nH]c3ccccc23)C(=O)N/N=C/c2ccccc2O)c1C (stereo not drawn) = 82
CCOC(=O)c1cc(-c2ccc(Br)cc2)n(C(Cc2c[nH]c3ccccc23)C(=O)N/N=C/c2cc(OC)c(O)c(OC)c2)c1C (stereo not drawn) = 73
CCOC(=O)c1cc(-c2ccc(Br)cc2)n(C(Cc2c[nH]c3ccccc23)C(=O)N/N=C/c2ccc(NC(C)=O)cc2)c1C (stereo not drawn) = 78
CCOC(=O)c1cc(-c2ccc(Br)cc2)n(C(Cc2c[nH]c3ccccc23)C(=O)N/N=C/c2ccc3ccccc3c2)c1C (stereo not drawn) = 60
CCOC(=O)c1cc(-c2ccc(Br)cc2)n(C(Cc2c[nH]c3ccccc23)C(=O)N/N=C/c2c3ccccc3cc3ccccc23)c1C (stereo not drawn) = 64

Now, please, on to the next molecule.
[ask] Tell me the measured viability at 100 µM of CCOC(=O)c1cc(-c2ccc(Br)cc2)n(C(Cc2c[nH]c3ccccc23)C(=O)N/N=C/c2ccc([N+](=O)[O-])o2)c1C (stereo not drawn) , please.
[reply] 69

----------
Each entry below carries its reported pIC50.
System: SH-SY5Y cells
Assay: In vitro cytotoxicity in neuroblastoma cell line SH-SY5Y (MTT)
Assay type: cell-based
Settings: Homo sapiens, 24 h treatment, 0.1-500 µM, read-out: IC50 (cell viability)
pIC50: −log10 of the molar value.

Observe how each entry below is paired with its result.
CCOC(=O)c1cc(-c2ccc(Br)cc2)n(C(Cc2c[nH]c3ccccc23)C(=O)N/N=C/c2cc(OC)c(O)c(OC)c2)c1C (stereo not drawn) [compound 7] = < 3.30
CCOC(=O)c1cc(-c2ccc(Br)cc2)n(C(Cc2c[nH]c3ccccc23)C(=O)N/N=C/c2ccc3ccccc3c2)c1C (stereo not drawn) [compound 14] = < 3.30
CCOC(=O)c1cc(-c2ccc(Br)cc2)n(C(Cc2c[nH]c3ccccc23)C(=O)N/N=C/c2c3ccccc3cc3ccccc23)c1C (stereo not drawn) [compound 15] = < 3.30

[ask] So what does the record say about pIC50 for CCOC(=O)c1cc(-c2ccc(Br)cc2)n(C(Cc2c[nH]c3ccccc23)C(=O)N/N=C/c2ccc([N+](=O)[O-])o2)c1C (stereo not drawn) [compound 11] ?
[reply] 3.58

[ask] State the recorded pIC50 for this entry: CCOC(=O)c1cc(-c2ccc(Br)cc2)n(C(Cc2c[nH]c3ccccc23)C(=O)N/N=C/c2ccccc2O)c1C (stereo not drawn) [compound 12]
[reply] < 3.30

[ask] Recorded pIC50 of CCOC(=O)c1cc(-c2ccc(Br)cc2)n(C(Cc2c[nH]c3ccccc23)C(=O)N/N=C/c2ccc(NC(C)=O)cc2)c1C (stereo not drawn) [compound 9] , please.
[reply] < 3.30

----------
Test system: isolated rat brain synaptosomes
Assay: 6-OHDA-induced neurotoxicity in isolated rat brain synaptosomes
Format: cell-based
Conditions: 100 µM compound + 150 µM 6-OHDA, compared to the 6-OHDA group
Quantity kind: preserved GSH levels in synaptosomes (%)
Number only, in %; omit the unit.

CCOC(=O)c1cc(-c2ccc(Br)cc2)n(C(Cc2c[nH]c3ccccc23)C(=O)N/N=C/c2ccccc2O)c1C (stereo not drawn) [compound 12] = 80
CCOC(=O)c1cc(-c2ccc(Br)cc2)n(C(Cc2c[nH]c3ccccc23)C(=O)N/N=C/c2ccc([N+](=O)[O-])o2)c1C (stereo not drawn) [compound 11] = 60
CCOC(=O)c1cc(-c2ccc(Br)cc2)n(C(Cc2c[nH]c3ccccc23)C(=O)N/N=C/c2cc(OC)c(O)c(OC)c2)c1C (stereo not drawn) [compound 7] = 70

[ask] Name the reported preserved GSH levels in synaptosomes value associated with the compound CCOC(=O)c1cc(-c2ccc(Br)cc2)n(C(Cc2c[nH]c3ccccc23)C(=O)N/N=C/c2c3ccccc3cc3ccccc23)c1C (stereo not drawn) [compound 15]
[reply] 70

[ask] Requested read-out: preserved GSH levels in synaptosomes. Entry: CCOC(=O)c1cc(-c2ccc(Br)cc2)n(C(Cc2c[nH]c3ccccc23)C(=O)N/N=C/c2ccc(NC(C)=O)cc2)c1C (stereo not drawn) [compound 9]
[reply] 60

[ask] Which value of preserved GSH levels in synaptosomes has been reported for CCOC(=O)c1cc(-c2ccc(Br)cc2)n(C(Cc2c[nH]c3ccccc23)C(=O)N/N=C/c2ccc3ccccc3c2)c1C (stereo not drawn) [compound 14] in the records?
[reply] 70

----------
Catalogue of decrease of MDA production in microsomes values
System: isolated rat brain microsomes
Assay: Non-enzyme (Fe2+/AA) lipid peroxidation in isolated rat brain microsomes
Format: biochemical
Conditions: 100 µM compound co-incubated with Fe2+/AA, compared to the Fe2+/AA group
Could you give me the number in %? Just the number is fine.

Reference set (5 entries):
CCOC(=O)c1cc(-c2ccc(Br)cc2)n(C(Cc2c[nH]c3ccccc23)C(=O)N/N=C/c2cc(OC)c(O)c(OC)c2)c1C (stereo not drawn) [compound 7] = 38
CCOC(=O)c1cc(-c2ccc(Br)cc2)n(C(Cc2c[nH]c3ccccc23)C(=O)N/N=C/c2c3ccccc3cc3ccccc23)c1C (stereo not drawn) [compound 15] = 36
CCOC(=O)c1cc(-c2ccc(Br)cc2)n(C(Cc2c[nH]c3ccccc23)C(=O)N/N=C/c2ccccc2O)c1C (stereo not drawn) [compound 12] = 40
CCOC(=O)c1cc(-c2ccc(Br)cc2)n(C(Cc2c[nH]c3ccccc23)C(=O)N/N=C/c2ccc3ccccc3c2)c1C (stereo not drawn) [compound 14] = 37
CCOC(=O)c1cc(-c2ccc(Br)cc2)n(C(Cc2c[nH]c3ccccc23)C(=O)N/N=C/c2ccc([N+](=O)[O-])o2)c1C (stereo not drawn) [compound 11] = 35

The record that follows has no decrease of MDA production in microsomes shown yet.
[ask] Would you kindly share the measured decrease of MDA production in microsomes for CCOC(=O)c1cc(-c2ccc(Br)cc2)n(C(Cc2c[nH]c3ccccc23)C(=O)N/N=C/c2ccc(NC(C)=O)cc2)c1C (stereo not drawn) [compound 9] ?
[reply] 26

----------
Tested on: isolated rat brain microsomes
Experiment: In vitro toxicity (prooxidant effect, MDA) on isolated rat brain microsomes
Assay type: biochemical
Conditions: 100 µM, vs untreated control microsomes
Below, each of the compounds is paired with its reported increase in MDA formation in microsomes value.
Kindly report the value followed by its unit.

// below: answered compounds
CCOC(=O)c1cc(-c2ccc(Br)cc2)n(C(Cc2c[nH]c3ccccc23)C(=O)N/N=C/c2c3ccccc3cc3ccccc23)c1C (stereo not drawn) = 40%
CCOC(=O)c1cc(-c2ccc(Br)cc2)n(C(Cc2c[nH]c3ccccc23)C(=O)N/N=C/c2ccccc2O)c1C (stereo not drawn) = 35%
CCOC(=O)c1cc(-c2ccc(Br)cc2)n(C(Cc2c[nH]c3ccccc23)C(=O)N/N=C/c2cc(OC)c(O)c(OC)c2)c1C (stereo not drawn) = 29%
CCOC(=O)c1cc(-c2ccc(Br)cc2)n(C(Cc2c[nH]c3ccccc23)C(=O)N/N=C/c2ccc(NC(C)=O)cc2)c1C (stereo not drawn) = 38%
CCOC(=O)c1cc(-c2ccc(Br)cc2)n(C(Cc2c[nH]c3ccccc23)C(=O)N/N=C/c2ccc3ccccc3c2)c1C (stereo not drawn) = 39%

Could you now consider this next compound?
[ask] Which increase in MDA formation in microsomes reading was recorded for the compound CCOC(=O)c1cc(-c2ccc(Br)cc2)n(C(Cc2c[nH]c3ccccc23)C(=O)N/N=C/c2ccc([N+](=O)[O-])o2)c1C (stereo not drawn) ?
[reply] 41%
